All values here come from PubChem BioAssay AID743247.

experiment: inhibitors of fibronectin matrix deposition, primary screen, AH1F cells, Alexa488-fibronectin fluorescence, plate reader (AID 743247); conditions: AH1F fibroblasts, overnight, at 12.6 µM, active compounds read high;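 also: positive control wells lacked labelled fibronectin entirely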
Among all 350,000 compounds or so, about 300 (0.086%) were called active. This is one part of a sample in which actives are shown more often than they occur.

# molecule, inhibition, %
measured = [
    ("COc1cccc(C#Cc2ccc3c(c2)[C@@H]2[C@@H](CCN2S(=O)(=O)c2ccc(C)cc2)[C@@H](CO)N3)c1", 2.44),
    ("CS(=O)(=O)Nc1ccc2c(c1)[C@H]1C[C@@H](CC(=O)N3CCOCC3)O[C@@H](CO)[C@H]1O2", -0.107),
    ("C[C@H]1CN([C@@H](C)CO)C(=O)c2c(c3ccccc3n2C)-c2ccccc2CO[C@@H]1CN(C)CC1CCCCC1", -4.72),
    ("C[C@@H]1CN(C)C(=O)c2cccc(N(C)C)c2O[C@H]1CN(C)S(C)(=O)=O", -2.39),
]

====

Reported inhibition is given for each of the following compounds.
assay: inhibitors of fibronectin matrix deposition, primary screen, AH1F cells, Alexa488-fibronectin fluorescence, plate reader (AID 743247); details: AH1F fibroblasts, overnight, at 12.6 µM, active compounds read high;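 also: positive control wells lacked labelled fibronectin entirely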
Out of some 350,000 compounds screened, about 300 (0.086%) were called active. The sample holds actives, similar compounds and a random draw of the others, so the mix is not that of the screen.

# molecule, inhibition [%]
measured = [
    ("C[C@@H]1CCCCO[C@H](CN(C)C)[C@H](C)CN([C@@H](C)CO)C(=O)c2cc(NS(=O)(=O)c3cn(C)cn3)ccc2O1", -0.203),
    ("CCCNC(=O)C[C@H]1CC[C@@H]2[C@H](COc3ccc(NC(=O)c4ccc(OC)cc4)cc3C(=O)N2C)O1", 10.3),
    ("CN(C)c1ccc2c(c1)[C@H]1C[C@H](CC(=O)NCc3ccc(Cl)cc3)O[C@H](CO)[C@H]1O2", 1.04),
    ("CO[C@H]1CN(C)C(=O)c2ccc(NC(=O)Nc3ccccc3)cc2OC[C@@H](C)N(C(=O)CC2CC2)C[C@@H]1C", -8.75),
]

====

experiment: inhibitors of fibronectin matrix deposition, primary screen, AH1F cells, Alexa488-fibronectin fluorescence, plate reader (AID 743247); details: AH1F fibroblasts, overnight, at 12.6 µM, active compounds read high;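 also: positive control wells lacked labelled fibronectin entirely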
In all, about 350,000 compounds went through this assay and about 300 (0.086%) were called active. The full list was thinned out, with actives kept by preference.
Reported inhibition is given for each of the following compounds.
readoutType: inhibition (%)

# molecule, resultNumber
measured = [
    ("CCCN1[C@H](CO)[C@H](c2ccc(C#CC3CCCCC3)cc2)[C@@H]1CNC(=O)C1CC1", -11.7),
    ("CC(C)C#Cc1ccc2c(c1)O[C@@H](CN(C)C(=O)C1CCC1)[C@@H](C)CN([C@@H](C)CO)S2(=O)=O", -2.23),
    ("O=C(NC(=O)c1ccccc1)Nc1ccccc1O", -0.509),
    ("C[C@@H]1CN(C)C(=O)c2cc([N+](=O)[O-])ccc2O[C@@H]1CN(C)C(=O)OC(C)(C)C", -15.7),
    ("CCOC(=O)c1cnc(SCc2nc(N)nc(Nc3ccc(OC)cc3)n2)nc1N", 14.2),
]

====

experiment: inhibitors of fibronectin matrix deposition, primary screen, AH1F cells, Alexa488-fibronectin fluorescence, plate reader (AID 743247); conditions: AH1F fibroblasts, overnight, at 12.6 µM, active compounds read high;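 also: positive control wells lacked labelled fibronectin entirely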
The whole screen tested about 350,000 compounds, of which about 300 (0.086%) were called active. For the sample, actives were picked, then their nearest neighbours and some compounds at random.
readoutType: inhibition (%)

# molecule, unitSymbol, resultNumber
measured = [
    ("CO[C@@H]1CN(C)C(=O)c2cc(NC(=O)c3cccc(Oc4ccccc4)c3)ccc2OC[C@H](C)NC[C@@H]1C", "%", 15.5),
    ("C[C@H](CO)N1C[C@H](C)[C@@H](CN(C)C(=O)Nc2cccc(F)c2)OCc2ccccc2-c2ccccc2C1=O", "%", 6.45),
    ("COc1ccc2c3c(n(C)c2c1)[C@H](CO)N(C(C)=O)CC31CN(Cc2ccc(Cl)cc2)C1", "%", 9.57),
    ("CO[C@H]1CN(C)C(=O)c2ccc(NC(=O)C3CCC3)cc2OC[C@H](C)NC[C@@H]1C", "%", 4.29),
]

====

experiment: inhibitors of fibronectin matrix deposition, primary screen, AH1F cells, Alexa488-fibronectin fluorescence, plate reader (AID 743247); details: AH1F fibroblasts, overnight, at 12.6 µM, active compounds read high;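 also: positive control wells lacked labelled fibronectin entirely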
Hit rate of the full screen: of about 350,000 compounds, about 300 (0.086%) were called active. The list comes from a sample in which actives are over-represented; it also holds close analogues and randomly drawn compounds.
readoutType: inhibition (%)

# molecule, unitSymbol, resultNumber
measured = [
    ("COc1ccccc1NC(=O)N[C@H]1CC[C@H](CCNC(=O)Cc2ccccn2)O[C@@H]1CO", "%", 1.21),
    ("C[C@H](CO)N1C[C@H](C)[C@H](CN(C)Cc2ccc(C(F)(F)F)cc2)OCCCC[C@H](C)Oc2ccc(NS(=O)(=O)c3ccc(Cl)cc3)cc2C1=O", "%", -21),
    ("CC(C)NC(=O)N(C)C[C@H]1Oc2ccc(N)cc2C(=O)N(C)C[C@@H]1C", "%", 0.428),
    ("CNC(=O)C[C@@H]1CC[C@@H]2[C@H](COc3ccc(NC(=O)c4cccs4)cc3C(=O)N2C)O1", "%", -9.79),
    ("O=C(C[C@H]1C[C@H]2c3cc(NC(=O)CC4CC4)ccc3O[C@H]2[C@H](CO)O1)NCc1cc(F)ccc1F", "%", -4.07),
    ("CC(=O)N(C)C[C@@H]1Oc2ccc(NC(=O)NC(C)C)cc2C(=O)N(C)C[C@H]1C", "%", 0.044),
    ("CC[C@H]1CC=CC[C@@H](C)Oc2ccccc2C(=O)N(C)[C@H](Cc2ccccc2)C(=O)N1 (mixture of isomers)", "%", 0.881),
    ("CCC(=O)N(C)C[C@H]1Oc2ncc(-c3ccc(C)cc3)cc2C(=O)N([C@@H](C)CO)C[C@@H]1C", "%", -13),
    ("CC(=O)NC[C@H]1[C@H](c2ccc(C3=CCCCC3)cc2)[C@@H](CO)N1C(=O)NC(C)C", "%", -4.24),
    ("COCC(=O)Nc1ccc2c(c1)OC[C@H](C)N(C)C[C@H](C)[C@@H](OC)CN(C)C2=O", "%", -14.1),
    ("Cc1cccc(-n2ncc(Cl)c(Cl)c2=O)c1", "%", 51.7),
    ("COc1ccc(S(=O)(=O)N2C[C@@H](O)COC[C@H]3O[C@@H](CC(=O)NCCN4CCCCC4)CC[C@@H]32)cc1", "%", -7.51),
    ("O=C(C[C@H]1C[C@H]2c3cc(NC(=O)NC4CCCC4)ccc3O[C@H]2[C@@H](CO)O1)NCc1ccc(-c2ccccc2)cc1", "%", -25.6),
    ("CN1c2ccc(-c3cccc(C#N)c3)cc2[C@H]2[C@H](CCN2S(=O)(=O)c2cccc(F)c2)[C@@H]1CO", "%", 13.8),
    ("COc1ccccc1S(=O)(=O)N1C[C@@H](O)COC[C@H]2O[C@H](CC(=O)O)CC[C@@H]21", "%", -7.66),
    ("C[C@@H]1CN([C@H](C)CO)S(=O)(=O)c2ccc(C#CC3CC3)cc2O[C@H]1CN(C)C(=O)C1CCCCC1", "%", -1.06),
    ("CCC(=O)Nc1ccc2c(c1)C(=O)N(C)C[C@@H](OC)[C@@H](C)CN(C(=O)CN(C)C)[C@@H](C)CO2", "%", 2.05),
    ("C[C@@H]1CN([C@@H](C)CO)C(=O)Cc2cc(NC(=O)Nc3ccc4c(c3)OCO4)ccc2O[C@H]1CN(C)S(=O)(=O)c1ccccc1", "%", 0.36),
    ("C[C@@H]1CCCCO[C@H](CN(C)C(=O)c2ccccc2)[C@@H](C)CN([C@H](C)CO)C(=O)c2cc(NC(=O)c3ccccc3)ccc2O1", "%", 7),
    ("COC(=O)C[C@H]1CC[C@@H]2[C@@H](COc3ccc(NC(=O)Nc4ccc(Cl)cc4)cc3C(=O)N2C)O1", "%", -17.5),
    ("C[C@@H]1COCc2cnnn2CC[C@H](Cc2ccccc2)C(=O)N1", "%", -8.72),
    ("O=C(C[C@H]1CC[C@@H]2[C@H](COC[C@H](O)CN2CCC(F)(F)F)O1)NCC1CC1", "%", -3.5),
    ("C[C@@H]1CN([C@@H](C)CO)C(=O)c2c(c3ccccc3n2C)-c2ccccc2CO[C@H]1CN(C)C(=O)N[C@H](C)c1ccccc1", "%", -3.56),
    ("NC(=O)C1(Nc2ccccc2Cl)CCCC1", "%", -0.504),
    ("C[C@H](CO)N1C[C@H](C)[C@@H](CN(C)S(C)(=O)=O)Oc2cc(C#CC3CC3)ccc2S1(=O)=O", "%", 5.58),
]
